Data credit: patent US8618094B2

Recorded melting point by entry

COc1c(N2C[C@H]3[C@H](F)CC[C@@]3(N)C2)c(F)cc2c(=O)c(C(=O)O)cn([C@@H]3C[C@@H]3F)c12
179 to 181 °C
Cc1c(N2CC3(N)CCC4CC43C2)c(F)cc2c(=O)c(C(=O)O)cn([C@@H]3C[C@@H]3F)c12 (single isomer, unassigned)
145 to 149 °C
C[C@H]1C[C@@]2(N)CN(c3c(F)cc4c(=O)c(C(=O)O)cn5c4c3OC[C@@H]5C)C[C@@H]12
122 to 124 °C
COc1c(N2C[C@@H]3CCC[C@]3(N)C2)c(F)cc2c(=O)c(C(=O)O)cn([C@@H]3C[C@@H]3F)c12 (single isomer, unassigned) [Example 11]
169 to 172 °C

// melting point value for Cc1c(N2C[C@@H]3CCOC[C@@]3(N)C2)c(F)cc2c(=O)c(C(=O)O)cn([C@@H]3C[C@@H]3F)c12 : 159 to 161 °C

// melting point value for Cc1c(N2C[C@H]3CCOC[C@@]3(N)C2)c(F)cc2c(=O)c(C(=O)O)cn([C@@H]3C[C@@H]3F)c12 : 158 to 160 °C

---

Recorded melting point by entry

Solved cases below.
C[C@H]1COc2c(N3C[C@]4(N)CCC[C@]4(F)C3)c(F)cc3c(=O)c(C(=O)O)cn1c23 [Example 13]
285 to 293 °C (dec.)
COc1c(N2C[C@@H]3CCC[C@]3(N)C2)c(F)cc2c(=O)c(C(=O)O)cn([C@@H]3C[C@@H]3F)c12 (relative stereo) [Example 12]
171 to 174 °C
COc1c(N2C[C@H]3C4(CC4)C[C@@]3(N)C2)c(F)cc2c(=O)c(C(=O)O)cn([C@@H]3C[C@@H]3F)c12 [Example 10]
182 to 203 °C (dec.)
COc1c(N2C[C@H]3C(CF)C[C@@]3(N)C2)c(F)cc2c(=O)c(C(=O)O)cn([C@@H]3C[C@@H]3F)c12 (single isomer, unassigned) [Example 49]
122 to 125 °C
COc1c(N2C[C@H]3COC[C@@]3(N)C2)c(F)cc2c(=O)c(C(=O)O)cn([C@@H]3C[C@@H]3F)c12 [Example 59]
201 to 202 °C

// melting point value for Cc1c(N2C[C@]3(N)CC[C@]3(F)C2)c(F)cc2c(=O)c(C(=O)O)cn([C@@H]3C[C@@H]3F)c12 [Example 56] : > 272 °C (dec.)

---

System: S. epidermidis 56500
procedure-text: Antibacterial activity (MIC), standard method of the Japanese Society of Chemotherapy
Assay type: cell-based
condition-details: Staphylococcus epidermidis
reported-property: MIC (µg/mL)

COc1c(N2CC3(N)CCC4CC43C2)c(F)cc2c(=O)c(C(=O)O)cn([C@@H]3C[C@@H]3F)c12 (single isomer, unassigned)
0.05
Cc1c(N2C[C@]3(N)CCC[C@]3(F)C2)c(F)cc2c(=O)c(C(=O)O)cn([C@@H]3C[C@@H]3F)c12
0.025
COc1c(N2C[C@]3(N)CCC[C@]3(F)C2)c(F)cc2c(=O)c(C(=O)O)cn([C@@H]3C[C@@H]3F)c12
0.05
COc1c(N2C[C@H]3[C@@H](C)C[C@@]3(N)C2)c(F)cc2c(=O)c(C(=O)O)cn([C@@H]3C[C@@H]3F)c12
0.012

[a] C[C@H]1COc2c(N3CCN(C)CC3)c(F)cc3c(=O)c(C(=O)O)cn1c23 [LVFX, levofloxacin, reference compound]
[b] COc1c(N2C[C@@H]3CCC[C@]3(N)C2)c(F)cc2c(=O)c(C(=O)O)cn([C@@H]3C[C@@H]3F)c12 (single isomer, unassigned)
Hello, I am sorting some records. Could you say if a or b has the smaller MIC value? Choose, then provide that item's label.
b
